Experiment: NCI Yeast Anticancer Drug Screen. Data for the cln2 rad14 strain (AID 165);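 further: 0% = growth equal to vehicle treated cultures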
Details: S. cerevisiae cln2 rad14 strain, at 5.0 µM (retest, dose inferred, filed as 0.5), active compounds read high
About 79,000 compounds went through this panel and 15% of them were active in at least one assay; those are over-represented in the sample as a whole.
// growth inhibition lookup, one value per entry

[
  {
    "Compound": "CCOC(=O)c1ccc(-n2c(C)nc3ccc(Br)cc3c2=O)cc1",
    "growth inhibition / %": 0
  },
  {
    "Compound": "CC(=O)N1CCCC2=C1CCCCCCCCCC2",
    "growth inhibition / %": 3
  },
  {
    "Compound": "Clc1cc2c(c3ncccc13)OCN(Cc1ccccc1)C2",
    "growth inhibition / %": 9
  },
  {
    "Compound": "COc1ccc(C2c3cc4c(cc3OC(O)C2C)OCO4)cc1 (stereo not drawn)",
    "growth inhibition / %": -2
  },
  {
    "Compound": "CCOC(=O)Sc1nc2ccccc2[nH]1",
    "growth inhibition / %": 3
  },
  {
    "Compound": "CN(CCCN(CCO)CCO)C1CC(C)(C)N(O)C(C)(C)C1",
    "growth inhibition / %": -2
  },
  {
    "Compound": "CC(=O)OCc1ccc2c(c1)C(O)NC(=O)O2 (stereo not drawn)",
    "growth inhibition / %": -5
  },
  {
    "Compound": "CCOc1ccc(/C=C\\c2ccnc3ccccc23)cc1OCC",
    "growth inhibition / %": -3
  }
]

====

Test: NCI Yeast Anticancer Drug Screen. Data for the sgs1 mgt1 strain (AID 161);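 further: 0% = growth of cultures given vehicle only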
Conditions: S. cerevisiae sgs1 mgt1 strain, at 50.0 µM (retest, dose inferred, filed as 5.0)
Compounds without any hit were thinned out: in the full panel of roughly 79,000, 15% have a hit. Active and inactive are the calls of the source. Cut-off read from the data, not from the text of the source: active = growth inhibition above about 70%; inactive = the rest.
Labels: true (active), false (inactive)

[
  {
    "Compound": "CN(C)c1ccc(C2(c3ccc(N(C)C)cc3)OC(=O)c3ccccc32)cc1",
    "Assigned Class": "false"
  },
  {
    "Compound": "O=[N+]([O-])c1ccc(CC(c2ccc([N+](=O)[O-])cc2)(c2ccc([N+](=O)[O-])cc2)c2ccc([N+](=O)[O-])cc2)cc1",
    "Assigned Class": "false"
  },
  {
    "Compound": "NNC(=O)N/N=C(/CC1(O)C(=O)Nc2ccc(Br)cc21)c1ccccc1 (stereo not drawn)",
    "Assigned Class": "true"
  },
  {
    "Compound": "CC(=O)OC1CCC2(C)C3CCC4(C)C(CCC4(Br)C(=O)CBr)C3CC(Br)C2(Br)C1 (stereo not drawn)",
    "Assigned Class": "false"
  },
  {
    "Compound": "CCN(CC)c1ccc(NC(C(=O)c2ccc(Cl)cc2)c2ccc(Cl)cc2)cc1 (stereo not drawn)",
    "Assigned Class": "false"
  },
  {
    "Compound": "CC1(C)CC(=O)C(C(c2ccc3c(c2)OCO3)N2CCOCC2)C(=O)C1 (stereo not drawn)",
    "Assigned Class": "false"
  },
  {
    "Compound": "CCOC(=O)N1C2C=CC(=O)C(C=C2)N1C(=O)OCC (stereo not drawn)",
    "Assigned Class": "true"
  },
  {
    "Compound": "O=C(O)c1ccc2c(Br)ccc3c2c1CC3",
    "Assigned Class": "false"
  },
  {
    "Compound": "O=C(/C=C/C(=N\\Nc1ccccc1)c1ccccc1)c1ccccc1",
    "Assigned Class": "true"
  },
  {
    "Compound": "CCCCNC(=S)NC1OC(CO)C(O)C(O)C1O (stereo not drawn)",
    "Assigned Class": "false"
  },
  {
    "Compound": "O=c1[nH]c(Cc2ccccc2)nc2c1sc1nc3ccccc3n12",
    "Assigned Class": "true"
  },
  {
    "Compound": "Brc1ccc(C2c3ccccc3-c3ccccc32)cc1",
    "Assigned Class": "true"
  },
  {
    "Compound": "CC(C)(C)OC(=O)C(N(Cc1ccccc1)Cc1ccccc1)N(Cc1ccccc1)Cc1ccccc1",
    "Assigned Class": "false"
  },
  {
    "Compound": "CN1C(Cl)=NS(=O)(=O)c2ccccc21",
    "Assigned Class": "false"
  },
  {
    "Compound": "CC1(c2ccccc2)OC1C(=O)N(c1ccccc1)c1ccccc1 (stereo not drawn)",
    "Assigned Class": "true"
  },
  {
    "Compound": "C1=C(C2=CCCc3ccccc32)c2ccccc2CC1",
    "Assigned Class": "false"
  },
  {
    "Compound": "Cc1c(C)c(C[P+](CCP(c2ccccc2)c2ccccc2)(c2ccccc2)c2ccccc2)c(C)c(C)c1C[P+](CCP(c1ccccc1)c1ccccc1)(c1ccccc1)c1ccccc1",
    "Assigned Class": "false"
  },
  {
    "Compound": "CC12CCC(O)CC1CCC1C2CCC2(C)C(NC(=O)N(CCCl)N=O)CCC12 (stereo not drawn)",
    "Assigned Class": "true"
  },
  {
    "Compound": "CS[C@H]1CC[C@H]2[C@@H]3CCc4cc(O)ccc4[C@H]3CC[C@]12C",
    "Assigned Class": "true"
  },
  {
    "Compound": "COc1cc(C=O)c(Cl)cc1O",
    "Assigned Class": "false"
  },
  {
    "Compound": "CCOC1=C(c2ccccc2)Sc2ccc(C)cc2C1c1ccc(C)cc1 (stereo not drawn)",
    "Assigned Class": "true"
  },
  {
    "Compound": "CCCCN(c1ccccc1)c1ncnc2c1ncn2C",
    "Assigned Class": "true"
  },
  {
    "Compound": "CC1SC2(C(=O)Nc3ccc(Br)cc32)N(c2ccc(Cl)cc2)C1=O (stereo not drawn)",
    "Assigned Class": "true"
  },
  {
    "Compound": "COC(=O)c1ccc(C)cc1C1CN=NC12Cc1cccc(C)c1C2=O (stereo not drawn)",
    "Assigned Class": "false"
  },
  {
    "Compound": "CCOc1ccc2c(c1)[n+]([O-])c(-c1ccc([N+](=O)[O-])cc1)c(N)[n+]2[O-]",
    "Assigned Class": "true"
  },
  {
    "Compound": "c1ccc(CN2CCC3(CC2)SSC2(CCN(Cc4ccccc4)CC2)S3)cc1",
    "Assigned Class": "false"
  },
  {
    "Compound": "O=C(NC(=Nc1ccccc1)SCCSC(=Nc1ccccc1)NC(=O)c1ccccc1)c1ccccc1",
    "Assigned Class": "false"
  },
  {
    "Compound": "O=C(O)C1C2CC3CC(C2)CC1C3 (stereo not drawn)",
    "Assigned Class": "false"
  },
  {
    "Compound": "COc1ccc(C2NCc3c(sc4c3CCCC4)-n3cccc32)cc1 (stereo not drawn)",
    "Assigned Class": "true"
  },
  {
    "Compound": "COc1ccc(C(O)/C(=N\\NC(N)=S)c2nc3ccc([N+](=O)[O-])cc3[nH]c2=O)cc1OC (stereo not drawn)",
    "Assigned Class": "true"
  },
  {
    "Compound": "CCCCCCCCCC[N+](C)(C)CCC[N+](C)(C)CCCCCCCCCC",
    "Assigned Class": "true"
  },
  {
    "Compound": "CC(C)=CCC/C(C)=C/CCC1(C)C=Cc2c(c3ccccc3oc2=O)O1 (stereo not drawn)",
    "Assigned Class": "false"
  },
  {
    "Compound": "COc1ccc(OC)c(C[P+](c2ccccc2)(c2ccccc2)c2ccccc2)c1",
    "Assigned Class": "true"
  }
]
